Task for the reader: assign each of the following compounds its reported pKi.
biological target: GABA-A receptor; anion channel; test: Displacement of [3H]flunitrazepam from GABA-A benzodiazepine receptor of rat cortical membranes
Answers are plain numbers, as −log10 of the molar value.

Sample answers from the record:
>  <COMPOUND>
CC1CN(C)CC(C)N1C(=O)N1Cc2c(C(=O)OC(C)(C)C)ncn2-c2ccc(Cl)cc21 (stereo unspecified)

>  <TESTED TARGET>
GABA-A receptor; anion channel

>  <OBSERVED MEASUREMENT>
7.04

$$$$
>  <COMPOUND>
CC(C)(C)OC(=O)c1ncn2c1CN(C(=O)N1CCN(c3ccccn3)CC1)c1cc(Cl)ccc1-2

>  <TESTED TARGET>
GABA-A receptor; anion channel

>  <OBSERVED MEASUREMENT>
7.82

$$$$
>  <COMPOUND>
C[C@@H]1CN(C(=O)N2Cc3c(C(=O)OC(C)(C)C)ncn3-c3ccc(F)cc32)C[C@H](C)N1

>  <TESTED TARGET>
GABA-A receptor; anion channel

>  <OBSERVED MEASUREMENT>
8.98

$$$$
>  <COMPOUND>
CC1CNCC(C)N1C(=O)N1Cc2c(C(=O)OC(C)(C)C)ncn2-c2ccc(F)cc21 (stereo unspecified)

>  <TESTED TARGET>
GABA-A receptor; anion channel

>  <OBSERVED MEASUREMENT>
8.46

$$$$
>  <COMPOUND>
Cc1cccc2c1N(C(=O)N1C[C@@H](C)N(C)[C@@H](C)C1)Cc1c(C(=O)OC(C)(C)C)ncn1-2

>  <TESTED TARGET>
GABA-A receptor; anion channel

>  <OBSERVED MEASUREMENT>
6.33

$$$$

## Input // returns reported pKi for input "CC(C)(C)OC(=O)c1ncn2c1CN(C(=O)N1CCOCC1)c1ccccc1-2"
## Output 8.61

---

assay: Total plasma clearance was determined for the compound after iv dose of 4.97 mg/kg in rats; type: ADME, organism-based; parameters: dose 4.97 mg/kg, route intravenous; details: rat, read-out: Clp (converted)
RECORDED METRIC: clearance (mL/min/kg)
One number for each entry, in mL/min/kg.

## Input // returns reported clearance for input "C[C@@H]1CN(C(=O)N2Cc3c(C(=O)OC(C)(C)C)ncn3-c3ccc(C(F)(F)F)cc32)C[C@H](C)N1"
## Output 12.2

---

test: Half-life after iv dose of 4.97 mg/kg in rats; format: ADME, organism-based; parameters: dose 4.97 mg/kg, route intravenous; conditions: rat, in vivo
RECORDED METRIC: half-life (h)
Answers are plain numbers, in h.

## Input // returns reported half-life for input "C[C@@H]1CN(C(=O)N2Cc3c(C(=O)OC(C)(C)C)ncn3-c3ccc(C(F)(F)F)cc32)C[C@H](C)N1"
## Output 2.4

---

species on record: Mus musculus; experiment: Ability to antagonize the muscle relaxation effect in mice caused by a benzodiazepine full agonist, triazolam.; format: functional
RECORDED METRIC: ED50 (mg/kg)
One number for each entry, in mg/kg.

>  <MOLECULE>
CN(C)C(=O)N1Cc2c(-c3noc(C4CC4)n3)ncn2-c2ccccc21 [PNU-91571]

>  <ED50 / mg/kg>
1

$$$$
>  <MOLECULE>
C[C@@H]1CN(C(=O)N2Cc3c(C(=O)OC(C)(C)C)ncn3-c3ccc(F)cc32)C[C@H](C)N1C

>  <ED50 / mg/kg>
21.8

$$$$

Turning to the following molecule.
## Input // returns reported ED50 for input "Cc1ccc2c(c1)N(C(=O)N1CCN[C@H](C)C1)Cc1c(C(=O)OC(C)(C)C)ncn1-2"
## Output 17.3

---

molecular target: GABA-A receptor; anion channel (Rattus norvegicus) (UniProt O09028+P15431+P18506+P18508+P19969+P20236+P23574+P23576+P28471+P28473+P30191+P62813+P63079+P63138+Q91ZM7+Q9ES14); test: Inhibition of [35S]TBPS binding to GABA-A Benzodiazepine receptor of rat brain membranes; format: cell membranes; details: Membrane
Fulfilled means recorded Shift is 0.5 or above; Not fulfilled means it is below 0.5.

>  <COMPOUND>
CC(C)(C)OC(=O)c1ncn2c1CN(C(=O)N1CCOCC1)c1ccccc1-2

>  <GROUP LABEL>
Not fulfilled

$$$$
>  <COMPOUND>
CC(C)(C)OC(=O)c1ncn2c1CN(C(=O)N1CCN(C(C)(C)C)CC1)c1cc(Cl)ccc1-2

>  <GROUP LABEL>
Not fulfilled

$$$$
>  <COMPOUND>
CC(C)(C)OC(=O)c1ncn2c1CN(C(=O)N1CCCC1)c1cc(Cl)ccc1-2.CCCC(=O)O

>  <GROUP LABEL>
Fulfilled

$$$$
>  <COMPOUND>
CN(C)C(=O)N1Cc2c(-c3noc(C4CC4)n3)ncn2-c2ccccc21 [PNU-91571]

>  <GROUP LABEL>
Fulfilled

$$$$

## Input Hi team, for "CC(C)(C)OC(=O)c1ncn2c1CN(C(=O)N1CCCCC1)c1ccccc1-2" , is the recorded Shift at or above 0.5?
## Output Not fulfilled

---

assay: Maximum serum concentration was determined for the compound after po dose of 5.03 mg/kg in rats; assay type: ADME, organism-based; set-up: dose 5.03 mg/kg, route oral; details: rat
RECORDED METRIC: Cmax (ng/mL)
Answers are plain numbers, in ng/mL.

## Input // returns reported Cmax for input "C[C@@H]1CN(C(=O)N2Cc3c(C(=O)OC(C)(C)C)ncn3-c3ccc(C(F)(F)F)cc32)C[C@H](C)N1"
## Output 1160

---

assay: Half-life after iv dose of 5.10 mg/kg in rats; format: ADME, organism-based; parameters: dose 5.1 mg/kg, route intravenous; conditions: rat, in vivo, 5.1 mg/kg
RECORDED METRIC: half-life
Provide a numeric answer, followed by its unit.

## Input // returns reported half-life for input "CCCC(=O)O.C[C@@H]1CN(C(=O)N2Cc3c(C(=O)OC(C)(C)C)ncn3-c3ccc(Cl)cc32)C[C@H](C)N1"
## Output 1.2 h

---

target: GABA-A receptor; alpha-1/beta-2/gamma-2 (Homo sapiens) (UniProt P14867+P47870+P18507); test: In vitro GABA-mediated chloride current in A293 cells expressing GABA-A benzodiazepine receptor alpha-1-beta-2-gamma-2 subunits at 5 uM; type: functional, cell-based; settings: HEK293
yes (1) means recorded Change in Cl- current is 0.6 or above; no (0) means it is below 0.6.

>  <CHEMICAL STRING>
C[C@@H]1CN(C(=O)N2Cc3c(C(=O)OC(C)(C)C)ncn3-c3ccc(F)cc32)C[C@H](C)N1C

>  <GROUP LABEL>
yes (1)

$$$$

## Input Hi team, for "C[C@H]1CN(C(=O)N2Cc3c(C(=O)OC(C)(C)C)ncn3-c3ccc(Cl)cc32)C[C@H](C)N1" , is the recorded Change in Cl- current at or above 0.6?
## Output yes (1)

## Input Hi team, for "Cc1ccc2c(c1)N(C(=O)N1CCN[C@@H](C)C1)Cc1c(C(=O)OC(C)(C)C)ncn1-2" , is the recorded Change in Cl- current at or above 0.6?
## Output yes (1)

## Input Hi team, for "C[C@@H]1CN(C(=O)N2Cc3c(C(=O)OC(C)(C)C)ncn3-c3ccc(Cl)cc32)C[C@H](C)N1CC(F)(F)F" , is the recorded Change in Cl- current at or above 0.6?
## Output no (0)

## Input Hi team, for "C[C@@H]1CN(C(=O)N2Cc3c(C(=O)OC(C)(C)C)ncn3-c3ccc(F)cc32)C[C@H](C)N1" , is the recorded Change in Cl- current at or above 0.6?
## Output no (0)

---

target: GABA-A receptor; anion channel (Rattus norvegicus) (UniProt O09028+P15431+P18506+P18508+P19969+P20236+P23574+P23576+P28471+P28473+P30191+P62813+P63079+P63138+Q91ZM7+Q9ES14); experiment: Shift in [35S]TBPS binding to GABA-A Benzodiazepine receptor of rat brain membrane
RECORDED METRIC: Shift
Answers are plain numbers.

Sample answers from the record:
>  <COMPOUND>
C[C@@H]1CN(C(=O)N2Cc3c(C(=O)OC(C)(C)C)ncn3-c3ccc(F)cc32)C[C@H](C)N1C

>  <RECORDED METRIC>
Shift

>  <OBSERVED MEASUREMENT>
0.44

$$$$
>  <COMPOUND>
CC1CNCC(C)N1C(=O)N1Cc2c(C(=O)OC(C)(C)C)ncn2-c2ccc(F)cc21 (centres undefined)

>  <RECORDED METRIC>
Shift

>  <OBSERVED MEASUREMENT>
0.02

$$$$
>  <COMPOUND>
CC1CN(C(=O)N2Cc3c(C(=O)OC(C)(C)C)ncn3-c3ccc(Cl)cc32)C(C)CN1.O=C(O)CC(=O)O (centres undefined)

>  <RECORDED METRIC>
Shift

>  <OBSERVED MEASUREMENT>
0.41

$$$$

Turning to the following compound.
## Input // returns reported Shift for input "CN1CCN(C(=O)N2Cc3c(C(=O)OC(C)(C)C)ncn3-c3ccc(Cl)cc32)CC1(C)C"
## Output 0.21
